IC50 overview
# MEASURED_TARGET: Human full-length Hsp90 (Homo sapiens, UniProt P08238)
# Construct: E. coli expressed human full-length HSP90 protein, purified >95%; made in house; host or cells: E. coli
# Sequence (P08238 whole entry): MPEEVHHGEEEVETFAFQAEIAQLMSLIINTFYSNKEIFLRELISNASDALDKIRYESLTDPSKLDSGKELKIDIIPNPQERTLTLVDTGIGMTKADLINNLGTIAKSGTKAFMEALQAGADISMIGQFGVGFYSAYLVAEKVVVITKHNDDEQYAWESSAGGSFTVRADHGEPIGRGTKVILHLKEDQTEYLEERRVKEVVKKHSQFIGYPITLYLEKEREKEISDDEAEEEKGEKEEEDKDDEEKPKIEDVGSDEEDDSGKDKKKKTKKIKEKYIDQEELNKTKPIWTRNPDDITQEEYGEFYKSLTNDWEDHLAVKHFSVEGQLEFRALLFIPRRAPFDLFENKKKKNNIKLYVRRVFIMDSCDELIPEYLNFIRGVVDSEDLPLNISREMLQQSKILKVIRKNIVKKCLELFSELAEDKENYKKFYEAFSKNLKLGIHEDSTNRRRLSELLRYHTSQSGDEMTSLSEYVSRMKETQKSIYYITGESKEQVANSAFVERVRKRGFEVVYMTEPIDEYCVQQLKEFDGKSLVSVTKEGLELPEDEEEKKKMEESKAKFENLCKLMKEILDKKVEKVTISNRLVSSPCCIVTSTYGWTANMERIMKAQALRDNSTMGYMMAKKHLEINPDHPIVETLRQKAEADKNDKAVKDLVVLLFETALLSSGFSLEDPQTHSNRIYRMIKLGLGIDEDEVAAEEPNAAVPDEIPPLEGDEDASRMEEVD
# ASSAY_PROTOCOL: Fluorescence polarization assay (competitive binding to HSP90, probe RBT0045864-FAM)
# ASSAY_CONDITIONS: fluorescence polarization assay, activity range; read-out: Hsp90 FP IC50

Worked cases, answers included:
COMPOUND	MEASURED_TARGET	IC50
CCOC(=O)c1cc2c(-c3cc(C=O)ccc3C)nc(N)nc2s1	Human full-length Hsp90 (Homo sapiens, UniProt P08238)	< 10 µM
CCCNC(=O)c1cc2c(-c3ccc(C)cc3C)nc(N)nc2s1	Human full-length Hsp90 (Homo sapiens, UniProt P08238)	< 10 µM
CCCOc1ccc(-c2nc(N)nc3sc(C(=O)OCC)cc23)c(C)c1	Human full-length Hsp90 (Homo sapiens, UniProt P08238)	< 10 µM
CCNC(=O)c1cc2c(-c3cc(C=O)ccc3C)nc(N)nc2s1	Human full-length Hsp90 (Homo sapiens, UniProt P08238)	< 10 µM
CCNC(=O)c1cc2c(-c3cc(CNCC4CCCO4)ccc3C)nc(N)nc2s1 (centres unmarked) [Example 223]	Human full-length Hsp90 (Homo sapiens, UniProt P08238)	< 10 µM

The compound `CCOC(=O)c1cc2c(-c3c(C)cccc3C)nc(N)nc2s1` showed IC50 equal to < 10 µM

The compound `CCCCOc1ccc(-c2nc(N)nc3sc(C(=O)OCC)cc23)c(C)c1` showed IC50 equal to > 10 µM

The compound `C=CCOc1ccc(-c2nc(N)nc3sc(C(=O)OCC)cc23)c(C)c1` showed IC50 equal to < 10 µM

The compound `CCC/C=C/c1nc(N)nc2sc(C(=O)OCC)cc12` showed IC50 equal to > 10 µM

The compound `CCNC(=O)c1cc2c(-c3cc(CNCCCOC)ccc3C)nc(N)nc2s1` showed IC50 equal to < 10 µM

The compound `CCOC(=O)c1cc2c(NC3CCCCC3)nc(N)nc2s1` showed IC50 equal to > 10 µM

The compound Nc1nc(-c2ccc(Cl)cc2Cl)c2cc(C(=O)NCC(O)CO)sc2n1 (centres unmarked) showed IC50 equal to < 10 µM

The compound `CCOC(=O)c1cc2c(Nc3ccccc3)nc(N)nc2s1` showed IC50 equal to > 10 µM

The compound `CCNC(=O)c1cc2c(-c3cc(CNCc4ccco4)ccc3C)nc(N)nc2s1` showed IC50 equal to < 10 µM

The compound `CCN(CC)CCOc1cc(-c2nc(N)nc3sc(C(=O)NC(C)C)cc23)c(Cl)cc1Cl` showed IC50 equal to < 10 µM

The compound `CCOC(=O)c1cc2c(-c3ccccc3Cl)nc(N)nc2s1` showed IC50 equal to < 10 µM

The compound `CCOC(=O)c1cc2c(C(=O)c3cc(C)c(C)cc3C)nc(N)nc2s1` showed IC50 equal to < 10 µM

The compound `Nc1nc(-c2ccc(Cl)cc2Cl)c2cc(C(=O)NCc3ccco3)sc2n1` showed IC50 equal to < 10 µM

The compound `CCOC(=O)c1cc2c(-c3ccc(OCC(=O)OC(C)(C)C)cc3C)nc(N)nc2s1` showed IC50 equal to > 10 µM

The compound `CCOC(=O)c1cc2c(-c3ccc(C#N)cc3Cl)nc(N)nc2s1` showed IC50 equal to < 10 µM

The compound `CCOC(=O)c1cc2c(-c3ccccc3Br)nc(N)nc2s1` showed IC50 equal to < 10 µM

The compound `CCOC(=O)c1cc2c(C(=O)c3ccc(OC)cc3)nc(N)nc2s1` showed IC50 equal to < 10 µM
